Test system: HOP-92 NSCLC
Test: NCI tumour cell line growth inhibition, 48 h
Reported log10 TGI by item:
All values: base-10 log of TGI in µM.

molecule | log10 TGI
COC(=O)C1=C(O)C(C(=O)OC)[C@@]2(O)[C@@H](C(=O)OC)C(c3ccc(OC(=O)C(Cc4ccccc4)NC(C)=O)cc3)C[C@@H]1[C@@H]2C(=O)OC (some centres undefined) | 1.77
COc1ccc(-n2cc(-c3ccc(Cl)cc3)[nH]c2=S)cc1Cl | 1.64
Cc1cc(CC(O)(C(F)(F)F)C(F)(F)F)cc(CC(O)(C(F)(F)F)C(F)(F)F)n1 | 0.74
c1ccc2c3c(c(N4CCNCC4)nc2c1)CCCC3 | 1.43
CCOC(=O)C(NC(=O)Nc1ccccc1)(Nc1cccc(Cl)c1)C(F)(F)F (centres undefined) | 1.98

Could you now look at the following molecule, please?
Entry O=C(N/C(=C\c1cc(Cl)ccc1Cl)c1nc2ccccc2[nH]1)c1ccccc1 , log10 TGI reported as 1.50

----------
Test system: M19-MEL melanoma
Assay: NCI tumour cell line growth inhibition, 48 h
readout.name: TGI

molecule | TGI
NC(N)=Nc1nc2cc(N)ccc2o1 | > 100 µM
COc1cc2c3c(c1OC)C1(C=CC(=O)C=C1)CC3N(C(=O)OC(C)(C)C(Cl)(Cl)Cl)CC2 (stereo not drawn) | 24.3 µM
O=C1CCCn2c3ccccc3c3ccnc1c32 | > 100 µM
c1cc(C2O[C@H]3CCCN3[C@@H]2c2ccncc2)ccn1 (stereo partly drawn) | > 100 µM
Cc1cc(C)c(-c2noc(-c3ccc(Cl)cc3)c2C2=NCCN2)c(C)c1 | > 100 µM

# TGI (molecule: COc1cc(OC)c(Oc2cccc(OC)c2OC)c(OC)c1 ) is > 100 µM

Value of TGI reported for the molecule CC(=O)OCC1OC(n2c(-c3ccc(N)cc3)cc(-c3ccco3)c(C#N)c2=O)C(OC(C)=O)C(OC(C)=O)C1OC(C)=O (stereo not drawn) is > 50 µM

// recorded TGI for c1ccc(C[P+]2(c3ccccc3)CCCCC2)cc1 : > 100 µM

----------
# key: entry, value: TGI
Test system: SF-539 CNS
Assay: NCI tumour cell line growth inhibition, 48 h

compound | TGI
N=C(N)c1ccc(-c2ccc(-c3ccco3)o2)cc1 | 21.5 µM
O=C1/C=C(/c2ccc(O)cc2)[C@H](O)Cc2ccc(OC3OC(CO)C(O)C(O)C3O)cc2O1 (stereo partly drawn) (tested in a mixture with another compound) | > 100 µM
C[N+](C)(C)CC(=O)NC(=O)N/N=C\C(CC#N)CN(Cc1ccccc1)Cc1ccccc1 (stereo not drawn) | > 100 µM
CCCCCCCC(=O)SCC/C=C/[C@@H]1CC(=O)NCc2cccc(n2)CN(Cc2ccc(Cl)cc2)CC(=O)N[C@@H](C(C)C)C(=O)O1 | > 100 µM
COc1cc(CNc2nc3cc(C(F)(F)F)ccc3nc2C(=O)O)cc(OC)c1OC | 37.6 µM
COc1cc(C2CC(c3ccc(C)cc3)=NN2C(C)=O)ccc1Oc1ccnc2cc(Cl)ccc12 (stereo not drawn) | > 100 µM

Reported TGI of Cc1c(Br)cccc1NC(=O)c1sc2nc3c(cc2c1N)CN(Cc1ccccc1)CC3 : 0.858 µM

For record COC12OC3(C4OC41)C(C(=O)O[C@H]3CO[Si](C)(C)C(C)(C)C)C2S(=O)(=O)c1ccccc1 (stereo partly drawn) the listed TGI is > 100 µM

# TGI (compound: CC(=O)Nc1ccc(S(=O)(=O)/N=c2/sc(S(N)(=O)=O)nn2C)cc1 ) is > 100 µM

Record CN(C)c1ccc(C(=C2C=CC(=[N+](C)C)C=C2)c2c(O)c(S(=O)(=O)[O-])cc3cc(S(=O)(=O)O)ccc23)cc1 , field TGI: > 100 µM

Please fill in: TGI reported for COC(=O)/C=C1\C(=O)N(C(C)=O)c2ccccc21 = > 46.4 µM

In plain terms, CC(=O)O/N=C1\C=Cc2c(no[n+]2[O-])C1=O has a documented TGI of 31.3 µM

The measured TGI associated with CC1=NN(C(=O)CC(=O)Nc2ccccc2)C(=O)C1N=Nc1ccc(S(N)(=O)=O)cc1 (stereo not drawn) reads > 100 µM

compound COc1ccc(NC(=O)CC(=O)n2nc(-c3ccccc3)c(N=Nc3ccc(C)cc3)c2-c2ccccc2)cc1 , TGI observed: 44 µM

The reported value for COc1ccc(/C=N/N=C(N)N)c(C(=O)O)c1OC in terms of TGI is > 100 µM

Sample COc1cc2c(cc1OC)[C@@H]1[C@H](C2=O)c2ccc([N+](=O)[O-])cc2C(=O)N1CCCBr ; TGI observed: 2.29 µM

Sure, the documented TGI for CN1CCN(c2nc(NCCNc3ccnc4cc(Cl)ccc34)c3ccccc3n2)CC1 is 3.34 µM

Query N.N.NCCCCN.O=C([O-])CCl.O=C([O-])CCl.O=C([O-])CCl.O=C([O-])CCl.[Pt+4].[Pt+4] yields TGI of > 50 µM

----------
Measured TGI, listed per entry for reference.
System: A498 renal
Assay: NCI tumour cell line growth inhibition, 48 h
Where a SMILES comes first, the peptide text is derived from it. The star is where a group is joined. Boc = CC(C)(C)OC(=O)*; OBn = c1ccc(CO*)cc1; Bn = c1ccc(C*)cc1

molecule | readout.name | endpoint.value
CC(C)CC(NC(=O)C(CCC(=O)OCc1ccccc1)NC(=O)OC(C)(C)C)C(=O)NC(COCc1ccccc1)C(=O)NC(Cc1ccccc1)C(=O)O (centres undefined) (Boc-E(OBn)LS(Bn)F-OH; configuration not given here) | TGI | > 100 µM

The molecule identified as CN(C)CCNc1ccccn1 registered its TGI at > 100 µM

Entry O=C1/C(=C/c2ccc(F)cc2)CN(Cc2cn(CCNc3ccnc4cc(Cl)ccc34)nn2)C/C1=C\c1ccc(F)cc1 , TGI reported as 2.35 µM

What the record says about CS(=O)(=O)c1nc(-c2cc3c(c(S(C)(=O)=O)n2)CCC3)cc2c1CCC2 : TGI is > 100 µM

response.value for O=C(CCCCCn1c2ccccc2c2c3c(c4c5ccccc5[nH]c4c21)C(=O)N(O)C3=O)N1CCOCC1 (field: TGI) = 2.7 µM

So for COc1ccc(/C=N/N=C(N)N)c(C(=O)O)c1OC , the logged TGI turned out to be > 100 µM

Record CSc1nc(NC2CC2)c2c(n1)Sc1nc3ccccc3n1N=C2 , field TGI: 60.8 µM

The value of TGI measured for the molecule CC(=O)Nc1ccc(S(=O)(=O)/N=c2/sc(S(N)(=O)=O)nn2C)cc1 turned out to be > 100 µM

GET /value?item= CC(C)n1c2c(c3ccccc3c1=O)C(=O)c1ccccc1-2 &field=TGI returns > 100 µM

Looking up COc1ncn(C2C=C(CO)C(O)C2O)c(=O)n1 (centres undefined) , I found its TGI recorded as > 100 µM

response.value for Cc1cc(C)cc(NC(=O)CCC(=O)C2CCC/C2=N\NC(=O)C(=O)NN)c1 (centres undefined) (field: TGI) = > 100 µM

Record summary for C=C1c2c(C)nn(-c3ccccc3)c2N(C)C23C[C@@H]1C1(C)c4c(C)nn(-c5ccccc5)c4N(C)C(C)(C[C@H]12)C3 (some centres undefined) : reported TGI = 45.9 µM

Looking up COc1ccc(/C(C#N)=C/c2nc3c(N4CCOCC4)nc(Cl)nc3n2C)cc1OC , I see its TGI listed as < 0.01 µM

Record summary for O=C(O)C(C1NCCS1)N1Cc2ccccc2C1 (centres undefined) : reported TGI = > 100 µM

TGI reported for this molecule C[N+](C)(C)CC(=O)NC(=O)N/N=C\C(CC#N)CN(Cc1ccccc1)Cc1ccccc1 (centres undefined) : > 100 µM

Query NC(N)=Nc1nc2cc(N)ccc2o1 yields TGI of > 100 µM

Entry NC1=CN2c3ccccc3N(CC(=O)N3CCOCC3)C2C=C1 (centres undefined) — recorded TGI = > 100 µM

The molecule CCCCC#Cc1c(I)n(C2OC(CO[Si](C)(C)C(C)(C)C)C3OC(C)(C)OC32)c(=O)[nH]c1=O (centres undefined) showed TGI equal to 26 µM

----------
Tested on: HCT-116 colon
Assay: NCI tumour cell line growth inhibition, 48 h
readout.name: TGI

Use the examples below as a reference point.
compound | TGI
Clc1cc(Cl)c2n[se]nc2c1 | > 100 µM
COc1cc(OC)cc(-c2n[nH]nc2-c2ccc3c(c2)OCO3)c1 | 15.6 µM
CC(C)CCC[C@@H](C)C1CCC2[C@@H]3CC=C4C[C@@H](OC(=O)CCC(=O)NCC[N+](C)(C)CCCS(=O)(=O)[O-])CC[C@]4(C)C3CC[C@@]21C (stereo not given in full) | 63.1 µM
O=c1[nH]c(=O)n(COCCO)cc1-c1ccccc1 | > 100 µM
COc1cc2[nH]c(=O)[nH]c2c2c(C)c[nH]c12 | > 100 µM

For the next question, use this compound.
The reported value for COc1ccccc1NC(=O)CC(=O)NNCC(=O)Nc1nc(-c2ccccc2)cs1 in terms of TGI is > 100 µM
